Experiment: Cytotoxicity counterscreen, CellTiter Glo, 72 hr
Assay type: cell-based, human
Details: human, bladder carcinoma 5637 cells (ATCC HTB-9), synthesized sample, SID 126497311; read-out: Mammalian cell toxicity CC50
readout: CC50 at 72 h (µM)
Reply numerically in µM, unit not repeated.

I'd like to know its CC50 at 72 h. The compound in question is CCOc1ccc(-c2cc(NC(=O)c3c(F)cccc3F)c(C(=O)O)s2)cc1
51.6

###

System: Bladder carcinoma 5637 cells
Assay: Cytotoxicity counterscreen, CellTiter Glo, 72 hr
Assay type: cell-based, human
readout: IC50 (µM)
Your answer is read as µM, so omit the unit and give the number.

// worked examples, IC50 included
> print(dat)
                                chem.smiles  readout  experimental.value
1  O=C(Nc1cc(-c2ccc(C(F)(F)F)cc2)sc1C(=O)O)c1cc2ccccc2o1     IC50                72.1
2  CC(C)c1ccc(-c2cc(NC(=O)c3ccc(Br)o3)c(C(=O)O)s2)cc1     IC50                50.4
3  CCOc1ccc(-c2cc(NC(=O)c3ccc(Br)o3)c(C(=O)O)s2)cc1     IC50                68.7
4  Cc1ccc(-c2cc(NC(=O)c3cc4ccccc4o3)c(C(=O)O)s2)cc1     IC50                94.6
5  CC(C)c1ccc(-c2cc(NC(=O)c3c(F)cccc3F)c(C(=O)O)s2)cc1     IC50                32.4

Now for a further molecule.
For the molecule shown here, O=C(O)c1sc(-c2ccc(OC(F)(F)F)cc2)cc1NC(=O)c1c(F)cccc1F , give the reported IC50.
51
